Taken from ChEMBL document CHEMBL1201861.

Test system: EGI-1;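 also: cell viability readout used to gauge growth inhibition of EGI-1 cells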
assay.info: cells
Type: functional, cell-based, Homo sapiens
condition.label: Homo sapiens, EGI-1
Description: SANGER: Inhibition of human EGI-1 cell growth in a cell viability assay.
pIC50: −log10 of the molar value. Where a name gives a salt, the structure may show the parent alone.
quantity: pIC50

compound	quantity	assay.result
CS(=O)(=O)c1ccc(C(=O)Nc2ccc(Cl)c(-c3ccccn3)c2)c(Cl)c1 [VISMODEGIB]	pIC50	< 5.00
COC1=CC(c2cc3ccccc3[nH]2)=N/C1=C\c1[nH]c(C)cc1C [OBATOCLAX MESYLATE]	pIC50	5.80
Cc1cn(-c2cc(NC(=O)c3ccc(C)c(Nc4nccc(-c5cccnc5)n4)c3)cc(C(F)(F)F)c2)cn1 [NILOTINIB]	pIC50	< 5.70
CC(C)CCN1c2nc(Nc3cc(F)c(O)c(F)c3)ncc2N(C)C(=O)C1C (stereo unspecified)	pIC50	< 5.30
Cn1cnc2c(F)c(Nc3ccc(Br)cc3Cl)c(C(=O)NOCCO)cc21 [SELUMETINIB]	pIC50	5.74
Oc1ccc2ccccc2c1SSc1c(O)ccc2ccccc12	pIC50	< 4.49

====

Reported pIC50 values follow for various compounds
Tested on: HL-60;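 also: growth inhibition of human HL-60 cells, read out with a cell viability assay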
assay.info: cells
Format: functional, cell-based, Homo sapiens
condition.label: Homo sapiens, HL-60
Description: SANGER: Inhibition of human HL-60 cell growth in a cell viability assay.
pIC50: −log10 of the molar value. Counter-ions that a name gives are not always drawn.
quantity: pIC50

compound	comparison.sign	assay.result
Cn1cnc2c(F)c(Nc3ccc(Br)cc3Cl)c(C(=O)NOCCO)cc21	=	7.61
COC1=CC(c2cc3ccccc3[nH]2)=N/C1=C\c1[nH]c(C)cc1C [OBATOCLAX MESYLATE]	=	5.90
Cc1cn(-c2cc(NC(=O)c3ccc(C)c(Nc4nccc(-c5cccnc5)n4)c3)cc(C(F)(F)F)c2)cn1	<	5.70

====

System: CP67-MEL
assay.info: SANGER: Inhibition of human CP67-MEL cell growth in a cell viability assay.
Type: functional, cell-based
Reported IC50 values follow for various compounds

smiles.structure	comparison.sign	IC50 [nM]
N[C@@H](CSC(c1ccccc1)(c1ccccc1)c1ccccc1)C(=O)O	=	2390
Cc1ccc(-c2c(C(=O)CCl)n(CCCO)c3ncnc(N)c23)cc1	>	4000

====

Reported IC50 values follow for various compounds
Test system: CWR22R
assay.info: cells
Assay type: functional, cell-based, Homo sapiens
condition.label: Homo sapiens, 22Rv1
Description: SANGER: Inhibition of human 22RV1 cell growth in a cell viability assay.
Structures can show the parent of a compound that is named as a salt.
quantity: IC50

compound	quantity	assay.result
N#Cc1c(O)c2c(-c3ccc(-c4ccccc4O)cc3)csc2[nH]c1=O	IC50	> 1020 nM
CCC/C=C/C=C/C(=O)O[C@H]1/C(=C/C(=O)OC)C[C@H]2C[C@H]([C@@H](C)O)OC(=O)C[C@H](O)C[C@@H]3C[C@H](OC(C)=O)C(C)(C)[C@](O)(C[C@@H]4C/C(=C/C(=O)OC)C[C@H](/C=C/C(C)(C)[C@]1(O)O2)O4)O3 [BRYOSTATIN 1]	IC50	> 8 nM
CS(=O)(=O)c1ccc(C(=O)Nc2ccc(Cl)c(-c3ccccn3)c2)c(Cl)c1 [VISMODEGIB]	IC50	> 10000 nM
C=C(c1ccc(C(=O)O)cc1)c1cc2c(cc1C)C(C)(C)CCC2(C)C [BEXAROTENE]	IC50	> 8000 nM
COc1cccc2c1C(=O)c1c(O)c3c(c(O)c1C2=O)C[C@@](O)(C(=O)CO)C[C@@H]3O[C@H]1C[C@H](N)[C@H](O)[C@H](C)O1 [DOXORUBICIN]	IC50	21.2 nM
COC1=CC(c2cc3ccccc3[nH]2)=N/C1=C\c1[nH]c(C)cc1C [OBATOCLAX MESYLATE]	IC50	274 nM
CC1(C)CNc2cc(NC(=O)c3cccnc3NCc3ccncc3)ccc21 [MOTESANIB]	IC50	> 2000 nM
